- TARGET ENTITY: SMARCA4 (Homo sapiens, UniProt P51532)
- Construct: endogenous in cells; host or cells: RKO cells (CRL-2577, ATCC)
- Sequence (P51532 whole entry): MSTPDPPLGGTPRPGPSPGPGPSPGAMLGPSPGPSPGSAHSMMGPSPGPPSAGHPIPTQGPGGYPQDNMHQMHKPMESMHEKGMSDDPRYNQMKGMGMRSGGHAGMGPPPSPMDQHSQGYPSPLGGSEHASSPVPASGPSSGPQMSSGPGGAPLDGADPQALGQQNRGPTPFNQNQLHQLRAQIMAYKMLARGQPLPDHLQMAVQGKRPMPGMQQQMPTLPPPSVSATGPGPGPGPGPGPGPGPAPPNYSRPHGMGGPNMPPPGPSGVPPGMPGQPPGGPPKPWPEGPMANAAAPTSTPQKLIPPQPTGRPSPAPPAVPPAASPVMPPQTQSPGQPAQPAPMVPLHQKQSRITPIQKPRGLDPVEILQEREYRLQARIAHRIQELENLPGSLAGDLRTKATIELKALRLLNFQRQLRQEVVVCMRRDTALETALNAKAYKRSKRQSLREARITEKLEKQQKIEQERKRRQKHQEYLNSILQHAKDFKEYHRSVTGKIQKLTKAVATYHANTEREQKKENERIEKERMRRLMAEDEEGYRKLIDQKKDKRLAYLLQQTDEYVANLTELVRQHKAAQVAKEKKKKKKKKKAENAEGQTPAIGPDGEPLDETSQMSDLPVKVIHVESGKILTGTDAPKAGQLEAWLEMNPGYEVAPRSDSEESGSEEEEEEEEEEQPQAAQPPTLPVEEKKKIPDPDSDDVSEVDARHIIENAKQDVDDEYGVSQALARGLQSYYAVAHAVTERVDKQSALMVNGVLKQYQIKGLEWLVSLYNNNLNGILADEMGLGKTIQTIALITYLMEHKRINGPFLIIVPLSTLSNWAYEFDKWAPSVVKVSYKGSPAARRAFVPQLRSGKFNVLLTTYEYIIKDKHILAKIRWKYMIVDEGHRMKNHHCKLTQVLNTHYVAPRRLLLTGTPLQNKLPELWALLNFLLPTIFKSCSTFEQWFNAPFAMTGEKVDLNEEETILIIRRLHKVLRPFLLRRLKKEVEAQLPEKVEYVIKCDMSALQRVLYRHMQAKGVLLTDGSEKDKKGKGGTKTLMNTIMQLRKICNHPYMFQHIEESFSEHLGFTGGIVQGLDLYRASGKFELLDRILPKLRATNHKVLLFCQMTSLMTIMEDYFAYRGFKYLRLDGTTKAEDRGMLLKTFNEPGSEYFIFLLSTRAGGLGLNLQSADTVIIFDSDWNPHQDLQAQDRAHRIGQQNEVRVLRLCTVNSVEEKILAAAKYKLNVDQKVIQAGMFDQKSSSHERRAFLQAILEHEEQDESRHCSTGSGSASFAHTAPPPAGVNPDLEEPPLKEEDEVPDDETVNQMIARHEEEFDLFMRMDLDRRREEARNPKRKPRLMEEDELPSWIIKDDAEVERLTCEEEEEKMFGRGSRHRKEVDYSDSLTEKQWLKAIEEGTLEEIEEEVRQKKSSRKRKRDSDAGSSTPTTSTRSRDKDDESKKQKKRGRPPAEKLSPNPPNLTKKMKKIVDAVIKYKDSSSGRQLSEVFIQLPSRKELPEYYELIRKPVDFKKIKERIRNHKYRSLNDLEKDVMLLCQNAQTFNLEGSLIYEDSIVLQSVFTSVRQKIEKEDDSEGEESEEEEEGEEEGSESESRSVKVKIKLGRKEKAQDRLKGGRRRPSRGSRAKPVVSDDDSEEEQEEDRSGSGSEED
- PROTOCOL: SMARCA4 degradation analysis by imaging in RKO cells (DC50 A4)
- Format: cell-based
- CONDITION SET: tables 69, 70, 73, 76-78
ATTRIBUTE MEASURED: DC50

| MOLECULE | DC50 |
| --- | --- |
| Cc1ncsc1-c1ccc([C@H](CCCCCN2CCC(c3cc4c(cn3)n3c5cccc(Br)c5c(=O)nc3n4C3CCCC3)CC2)NC(=O)[C@@H]2C[C@@H](O)CN2C(=O)[C@@H](NC(=O)C2(F)CC2)C(C)(C)C)cc1 [Compound 42aw] | > 833 nM |
| Cc1ncsc1-c1ccc([C@H](CCCCCN2CCN(c3ccc4c(c3)n(C3CCCC3)c3nc(=O)c5c(Br)cccc5n43)[C@H](C)C2)NC(=O)[C@@H]2C[C@@H](O)CN2C(=O)[C@@H](NC(=O)C2(F)CC2)C(C)(C)C)cc1 [Compound 42aq] | 9 nM |
| Cc1ncsc1-c1ccc([C@H](COCCN2CCC(c3ccc4c(c3)n(C3CCCC3)c3nc(=O)c5c(Br)cccc5n43)CC2)NC(=O)[C@@H]2C[C@@H](O)CN2C(=O)[C@@H](NC(=O)C2(F)CC2)C(C)(C)C)cc1 [Compound 42o] | 90 nM |
| Cc1ncsc1-c1ccc([C@H](COCCCCCN2CCC(c3ccc4c(c3)n(C3CCCC3)c3nc(=O)c5c(Br)cccc5n43)CC2)NC(=O)[C@@H]2C[C@@H](O)CN2C(=O)[C@@H](NC(=O)C2(F)CC2)C(C)(C)C)cc1 [Compound 42s] | 8 nM |
| Cc1ncsc1-c1ccc([C@H](CCCCCN2CCN(c3ccc4c(c3)n(C3CCCC3)c3nc(=O)c5c(Br)cccc5n43)CC2(C)C)NC(=O)[C@@H]2C[C@@H](O)CN2C(=O)[C@@H](NC(=O)C2(F)CC2)C(C)(C)C)cc1 [Compound 42ao] | 17 nM |
| Cc1ncsc1-c1ccc([C@H](CCCN2CCC(c3ccc4c(c3)n(C3COC3)c3nc(=O)c5c(Br)cccc5n43)CC2)NC(=O)[C@@H]2C[C@@H](O)CN2C(=O)[C@@H](NC(=O)C2(F)CC2)C(C)(C)C)cc1 [Compound 42ad] | > 200 nM |

I would be grateful if you could share the reported DC50 for Cc1ncsc1-c1ccc([C@H](CCC(O)CCN2CCC(c3ccc4c(c3)n(C3CCCC3)c3nc(=O)c5c(Br)cccc5n43)CC2)NC(=O)[C@@H]2C[C@@H](O)CN2C(=O)[C@@H](NC(=O)C2(F)CC2)C(C)(C)C)cc1 (some centres unmarked) [Compound 42e] .
80 nM

# lookup: DC50 of CCC(C)(C)[C@H](NC(=O)C1(F)CC1)C(=O)N1C[C@H](O)C[C@H]1C(=O)N[C@@H](COC(C)(C)CN1CCN(c2ccc3c(c2)n(C2CCCC2)c2nc(=O)c4c(Br)cccc4n32)CC1)c1ccc(-c2scnc2C)cc1 [Compound 42j]
> 833 nM
